Measured on: L-lactate dehydrogenase (Plasmodium falciparum (isolate CDC / Honduras)) (UniProt Q27743)
Sequence (Q27743 whole entry, looked up): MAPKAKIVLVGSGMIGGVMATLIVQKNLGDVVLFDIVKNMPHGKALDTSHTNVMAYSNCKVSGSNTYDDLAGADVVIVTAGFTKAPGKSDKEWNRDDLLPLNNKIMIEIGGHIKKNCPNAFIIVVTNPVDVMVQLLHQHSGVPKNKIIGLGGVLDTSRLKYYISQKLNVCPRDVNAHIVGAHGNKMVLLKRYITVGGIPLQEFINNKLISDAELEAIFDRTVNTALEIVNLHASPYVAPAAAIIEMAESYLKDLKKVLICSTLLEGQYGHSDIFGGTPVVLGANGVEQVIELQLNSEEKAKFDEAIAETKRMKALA
Assay info: PfLDH activity inhibition – cell lysate, 3D7 strain, counter-screen for P. falciparum growth inhibition project (AID 2304);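 note: 0% = vehicle and 100% = reference inhibitor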
Condition notes: P. falciparum 3D7 crude extract, LDH APAD/NBT absorbance; at 2 µM; active compounds read high
inhibition for assorted compounds
# value in %; strip the unit string

Cc1cc(NN=Cc2ccccc2Cl)c2cc(F)ccc2n1 :: -2
CC(C)N1CCC(NC(=O)N2CCCN(c3ncnc4cc(-c5ccc(Cl)cc5)sc34)CC2)CC1 :: 7
O=C(c1ccc([N+](=O)[O-])o1)N1CCC(Cc2ccc(C(F)(F)F)cc2)CC1 :: -2

Query: inhibition; subject: C[C@H](NC(=O)[C@H](Cc1ccccc1)NC(=O)OC(C)(C)C)C(=O)N[C@@H](CC1CCCCC1)C(O)CN (stereo not given in full)
-5

Also COc1c(C2CCN(CCCCNC(=O)c3ccc(-c4ccc(C#N)cc4)cc3)CC2)cc(Cl)c2c1CCCC2 ?
0
